Assay: Pharmacokinetic and tissue distribution study
Format: in vivo, CD-1 male mice
Conditions: male, CD-1, mouse; mice, 20 mg/kg PO; intestine
Assay readout: half-life (h)

>>> print(df.to_string())
                                   molecule  result
0  COc1cc(Nc2nccc(Nc3cccnc3-c3ccccn3)n2)ccc1N1CCN(C)CC1 [Compound 2]     3.6

====

Assay: Pharmacokinetic and tissue distribution study
Assay type: in vivo, CD-1 male mice
Details: male, CD-1, mouse; mice, 20 mg/kg PO; bone marrow; read-out: AUC0-?
Assay readout: AUC (ng·h/mL)

                                   compound  assay_readout  result
0  COc1cc(Nc2nccc(Nc3cccnc3-c3ccccn3)n2)ccc1N1CCN(C)CC1 [Compound 2]            AUC    2020

====

Experiment: Pharmacokinetics and relative bioavailability after a single oral dose (two liquid formulations, powder in capsule)
Type: in vivo, male Beagle dogs
Settings: male, Beagle, dog, plasma, po, 2 mg/kg, Powder in Capsule (Table 45), 2 mg/kg oral, male Beagle dogs, plasma, Mean; read-out: Cmax
Assay readout: Cmax (ng/mL)

                               entry_smiles  assay_readout  unit_of_measurement  result
0  COc1cc(Nc2nccc(Nc3cccnc3-c3ccccn3)n2)ccc1N1CCN(C)CC1           Cmax                ng/mL    14.9

====

Test: Pharmacokinetics and relative bioavailability after a single oral dose (two liquid formulations, powder in capsule)
Type: in vivo, male Beagle dogs
Conditions: male, Beagle, dog, plasma, po, 5 mg/kg, Powder in Capsule (Table 45), 5 mg/kg oral, male Beagle dogs, individual dog
Assay readout: half-life (h)

>>> print(df.to_string())
                               entry_smiles  unit_of_measurement  result
0  COc1cc(Nc2nccc(Nc3cccnc3-c3ccccn3)n2)ccc1N1CCN(C)CC1                    h     2.7

====

Test: Pharmacokinetics and relative bioavailability after a single oral dose (two liquid formulations, powder in capsule)
Type: in vivo, male Beagle dogs
Settings: male, Beagle, dog, plasma, po, 2 mg/kg, Formulation #2 (Table 44), 2 mg/kg oral, male Beagle dogs, plasma, Mean; read-out: Vz/F
Assay readout: Vd/F (L/kg)

>>> df
                               entry_smiles  assay_readout  unit_of_measurement  result
0  COc1cc(Nc2nccc(Nc3cccnc3-c3ccccn3)n2)ccc1N1CCN(C)CC1           Vd/F                 L/kg     177

====

Assay: Pharmacokinetic and tissue distribution study
Type: in vivo, CD-1 male mice
Settings: male, CD-1, mouse; mice, 20 mg/kg PO; adrenals
Assay readout: half-life (h)

                               entry_smiles  assay_readout  result
0  COc1cc(Nc2nccc(Nc3cccnc3-c3ccccn3)n2)ccc1N1CCN(C)CC1      half-life     3.3

====

Experiment: Pharmacokinetics and relative bioavailability after a single oral dose (two liquid formulations, powder in capsule)
Assay type: in vivo, male Beagle dogs
Conditions: male, Beagle, dog, plasma, po, 5 mg/kg, Formulation #1 (Table 43), 5 mg/kg oral, male Beagle dogs, individual dog
Assay readout: half-life (h)

In [3]: df
Out[3]:
                               entry_smiles  result
0  COc1cc(Nc2nccc(Nc3cccnc3-c3ccccn3)n2)ccc1N1CCN(C)CC1       6

====

Assay: Pharmacokinetics and relative bioavailability after a single oral dose (two liquid formulations, powder in capsule)
Type: in vivo, male Beagle dogs
Conditions: male, Beagle, dog, plasma, po, 5 mg/kg, Formulation #2 (Table 44), 5 mg/kg oral, male Beagle dogs, individual dog
Assay readout: Tmax

>>> df
                                   molecule  result
0  COc1cc(Nc2nccc(Nc3cccnc3-c3ccccn3)n2)ccc1N1CCN(C)CC1 [Compound 2]     3 h

====

Test: Pharmacokinetics and relative bioavailability after a single oral dose (two liquid formulations, powder in capsule)
Type: in vivo, male Beagle dogs
Details: male, Beagle, dog, plasma, po, 5 mg/kg, Formulation #2 (Table 44), 5 mg/kg oral, male Beagle dogs, Mean
Assay readout: AUC(0-inf)

>>> print(df.to_string())
                               entry_smiles       result
0  COc1cc(Nc2nccc(Nc3cccnc3-c3ccccn3)n2)ccc1N1CCN(C)CC1  221 ng·h/mL

====

Test: Pharmacokinetics and relative bioavailability after a single oral dose (two liquid formulations, powder in capsule)
Type: in vivo, male Beagle dogs
Conditions: male, Beagle, dog, plasma, po, 5 mg/kg, Powder in Capsule (Table 45), 5 mg/kg oral, male Beagle dogs, Mean
Assay readout: Tmax (h)

>>> df
                               entry_smiles  assay_readout  result
0  COc1cc(Nc2nccc(Nc3cccnc3-c3ccccn3)n2)ccc1N1CCN(C)CC1           Tmax     4.3

====

Assay: Pharmacokinetic and tissue distribution study
Assay type: in vivo, CD-1 male mice
Details: male, CD-1, mouse; mice, 20 mg/kg PO; lung
Assay readout: half-life

In [3]: df
Out[3]:
                                   compound  result
0  COc1cc(Nc2nccc(Nc3cccnc3-c3ccccn3)n2)ccc1N1CCN(C)CC1 [Compound 2]   2.8 h

====

Test: Pharmacokinetics and relative bioavailability after a single oral dose (two liquid formulations, powder in capsule)
Type: in vivo, male Beagle dogs
Conditions: male, Beagle, dog, plasma, po, 5 mg/kg, Powder in Capsule (Table 45), 5 mg/kg oral, male Beagle dogs, plasma, Mean; read-out: AUC0-TLast
Assay readout: AUC(0-t) (ng·h/mL)

                               entry_smiles  assay_readout  unit_of_measurement  result
0  COc1cc(Nc2nccc(Nc3cccnc3-c3ccccn3)n2)ccc1N1CCN(C)CC1       AUC(0-t)              ng·h/mL     146

====

Experiment: Pharmacokinetics and relative bioavailability after a single oral dose (two liquid formulations, powder in capsule)
Assay type: in vivo, male Beagle dogs
Conditions: male, Beagle, dog, plasma, po, 5 mg/kg, Powder in Capsule (Table 45), 5 mg/kg oral, male Beagle dogs, plasma, individual dog; read-out: CL/F (converted)
Assay readout: CL/F (mL/min/kg)

>>> print(df.to_string())
                               entry_smiles  result
0  COc1cc(Nc2nccc(Nc3cccnc3-c3ccccn3)n2)ccc1N1CCN(C)CC1     383

====

Test: Kinetic solubility in pH 2, 5 and 7 buffers at RT
Assay type: physicochemical
Conditions: 19 °C, aqueous buffer, thermodynamic from solid; pH 7 buffer, 24 hrs, RT; read-out: S: solubility
Assay readout: solubility at 24 h (µg/mL)

>>> df
                                   molecule  result
0  COc1cc(Nc2nccc(Nc3cccnc3-c3ccccn3)n2)ccc1N1CCN(C)CC1 [Freebase Form A]     8.9

====

Assay: Approximate solubility of freebase in 12 solvents at RT
Format: physicochemical
Details: organic solvent or mixture, thermodynamic from solid, n-Heptane
Assay readout: solubility

In [3]: df
Out[3]:
                                   compound  assay_readout        result
0  COc1cc(Nc2nccc(Nc3cccnc3-c3ccccn3)n2)ccc1N1CCN(C)CC1 [Freebase Form A]     solubility  < 2100 µg/mL

====

Assay: Pharmacokinetic and tissue distribution study
Format: in vivo, CD-1 male mice
Details: male, CD-1, mouse; mice, 20 mg/kg PO; brain
Assay readout: Tmax (h)

                                   compound  assay_readout  result
0  COc1cc(Nc2nccc(Nc3cccnc3-c3ccccn3)n2)ccc1N1CCN(C)CC1 [Compound 2]           Tmax     3.2

====

Experiment: Kinetic solubility in pH 2, 5 and 7 buffers at RT
Assay type: physicochemical
Conditions: 19 °C, aqueous buffer, thermodynamic from solid; pH 5 buffer, 24 hrs, RT; read-out: S: solubility
Assay readout: solubility at 24 h (µg/mL)

                                   compound  result
0  COc1cc(Nc2nccc(Nc3cccnc3-c3ccccn3)n2)ccc1N1CCN(C)CC1 [Freebase Form A]    6600

====

Assay: Comparison of concentration in plasma and brain tissue
Type: in vivo, mice
Details: CD-1, mouse, po; plasma, 20 mg/kg; read-out: AUC
Assay readout: AUC (ng·h/mL)

>>> df
                               entry_smiles  assay_readout  unit_of_measurement  result
0  COc1cc(Nc2nccc(Nc3cccnc3-c3ccccn3)n2)ccc1N1CCN(C)CC1            AUC              ng·h/mL    2340

====

Test: Approximate solubility of freebase in 12 solvents at RT
Assay type: physicochemical
Conditions: organic solvent or mixture, thermodynamic from solid, Acetone
Assay readout: solubility

                                   compound        result
0  COc1cc(Nc2nccc(Nc3cccnc3-c3ccccn3)n2)ccc1N1CCN(C)CC1 [Freebase Form A]  < 2400 µg/mL
